Test system: HFL-1 cells
Assay: IL8 assay (S1P induced IL-8 production)
Format: cell-based
Conditions: Homo sapiens, HFL1; S1P (1 μM) induced IL-8, HFL-1 cells, without HSA
Method: S1P is able to induce cytokines such as IL-8 in a process that is S1PR2 dependent (O'Sullivan et al, 2014; Bruennert et al, 2015). This assay is designed to test inhibitory activity of compounds on S1P induced IL-8 on HFL-1 cells, a human fetal lung fibroblast cell line. Human Fetal Lung cells (HFL-1) are seeded in 96 well plates in growth medium (F12K+10% heat inactivated FBS+1% Pen/strep). […] IL-8 levels in the supernatant are determined with the IL-8 ELISA of R&D systems.
pEC50: −log10 of the molar value.
Quantity Name: pEC50

Use the examples below as a reference point.
INSERT INTO measurements (sample_smiles, quantity_name, endpoint_result) VALUES
  ('CCOc1nc(Cl)cc(NC(=O)NCc2cc(C)c(-c3cn(C)nc3C(F)(F)F)nn2)n1', 'pEC50', 7.50),
  ('Cc1cc(CNC(=O)Nc2cc(Cl)nc(OCC(F)F)c2C)nnc1-c1cn(C)nc1C(F)(F)F', 'pEC50', 8.82),
  ('CCOc1nc(C)cc(NC(=O)NCc2cc(C)c(-c3cn(C)nc3C(F)(F)F)nn2)c1Cl', 'pEC50', 8.70),
  ('CCOc1cc(NC(=O)NCc2cc(C)c(N3CC(F)(F)C3)nn2)cc(Cl)n1', 'pEC50', 7.18),
  ('Cc1cc(CNC(=O)Nc2cc(OCC(=O)N(C)C)nc(C(F)(F)F)c2)nnc1-c1cn(C)nc1C(F)(F)F', 'pEC50', 5.66);

I = CCOc1cc(NC(=O)NCc2cc(C)c(N3CCC(F)(F)C3)nn2)cc(Cl)n1
II = CCOc1cc(NC(=O)NCc2cc(C)c(-c3cn(C)nc3C(F)(F)F)nn2)cc(C#N)n1
Task item: Please state the entry with greater pEC50 among I and II . When you have decided, please share the label of that item.
Reply: II

###

Target: UniProt O95136
Assay: GTP-γS binding assay ([35S]GTPγS, S1P at EC80, S1PR2 membranes)
Details: membranes from stable cell line over expressing S1PR2, read-out: S1PR2 EC
Method: The following assay can be used for determination of S1PR2 activation. The [^35S] GTPγS assay measures the level of G protein activation following agonist occupation of a GPCR, by determining the binding of the non-hydrolysable analog [^35S] GTPγS to Gα subunits. The assay is performed in a 96 well plate where the following reagents are added. […] Plates are read on a Topcount reader (Perkin Elmer) immediately after centrifugation (readout time, 1 min/well).
Quantity Name: EC50 (nM)

# count of solved cases: 5
INSERT INTO measurements (molecule, quantity_name, unit_label, endpoint_result) VALUES
  ('CCOc1nc(C#N)cc(NC(=O)NCc2cc(C)c(-c3cn(C)nc3C(F)(F)F)nn2)c1C1CC1 [Compound 58]', 'EC50', 'nM', 223),
  ('CCOc1cc(NC(=O)NCc2cc(C)c(-c3cn(C)nc3C(F)(F)F)nn2)cc(C(F)(F)F)n1 [Compound 1]', 'EC50', 'nM', 33.2),
  ('Cc1cc(CNC(=O)Nc2cnc(Cl)c(OCC(F)F)c2)nnc1-c1cn(C)nc1C(F)(F)F [Compound 23]', 'EC50', 'nM', 74.5),
  ('Cc1cc(CNC(=O)Nc2cc(OCC3CCOC3)nc(C(F)(F)F)c2)nnc1-c1cn(C)nc1C(F)(F)F (stereo not drawn) [Compound 36]', 'EC50', 'nM', 1800),
  ('Cc1cc(CNC(=O)Nc2cc(OCC3CC3(F)F)nc(C(F)(F)F)c2)nnc1-c1cn(C)nc1C(F)(F)F (stereo not drawn) [Compound 33]', 'EC50', 'nM', 164);

I = CCOc1nc(C)cc(NC(=O)NCc2cc(C)c(-c3cn(C)nc3C(F)(F)F)nn2)c1C#N [Compound 77]
II = Cc1cc(CNC(=O)Nc2cc(Cl)nc(OCC(F)(F)F)c2)nnc1-c1cn(C)nc1C(F)(F)F [Compound 14]
III = CCOc1nc(C)cc(NC(=O)NCc2cc(C)c(-c3cn(C)nc3C(F)(F)F)nn2)c1C [Compound 72]
IV = Cc1cc(CNC(=O)Nc2cc(C#N)nc(OCC(F)F)c2C)nnc1-c1cn(C)nc1C(F)(F)F [Compound 59]
V = CCOc1cc(NC(=O)NCc2cc(C)c(-c3cn(C)nc3C(F)(F)F)nn2)nc(OCC)n1 [Compound 31]
Task item: Rank entries according to their EC50, from the largest number down. Answer by listing the labels in the requested order.
Reply: I, V, II, IV, III
(I: 20000 nM, V: 1650 nM, II: 225 nM, IV: 38.5 nM, III: 25 nM)

P = Cc1cc(CNC(=O)Nc2cc(OCC(C)(F)F)nc(C(F)(F)F)c2)nnc1-c1cn(C)nc1C(F)(F)F [Compound 34]
Q = CCOc1ncc(NC(=O)NCc2cc(C)c(-c3cn(C)nc3C(F)(F)F)nn2)cc1C(F)(F)F [Compound 10]
R = Cn1cc(-c2nnc(CNC(=O)Nc3cc(Cl)nc(OCC(F)F)c3)cc2N2CC(F)(F)C2)c(C(F)(F)F)n1 [Compound 60]
Task item: Order the 3 molecules from highest to lowest EC50. A ranking is expressed here by listing the labels in the requested order.
Reply: R, P, Q
(R: 1520 nM, P: 408 nM, Q: 281 nM)

a = Cc1cc(CNC(=O)Nc2cc(Cl)nc(OCC(F)F)c2C)nnc1-c1cn(C)nc1C(F)(F)F [Compound 50]
b = CCOc1nc(C(F)(F)F)cc(NC(=O)NCc2cc(C)c(-c3cn(C)nc3C(F)(F)F)nn2)c1CC [Compound 46]
Task item: Min EC50? a | b # answer = label of selected item
Reply: a

###

Biological target: S1PR2 (Homo sapiens, UniProt O95136)
Sequence (O95136 whole entry): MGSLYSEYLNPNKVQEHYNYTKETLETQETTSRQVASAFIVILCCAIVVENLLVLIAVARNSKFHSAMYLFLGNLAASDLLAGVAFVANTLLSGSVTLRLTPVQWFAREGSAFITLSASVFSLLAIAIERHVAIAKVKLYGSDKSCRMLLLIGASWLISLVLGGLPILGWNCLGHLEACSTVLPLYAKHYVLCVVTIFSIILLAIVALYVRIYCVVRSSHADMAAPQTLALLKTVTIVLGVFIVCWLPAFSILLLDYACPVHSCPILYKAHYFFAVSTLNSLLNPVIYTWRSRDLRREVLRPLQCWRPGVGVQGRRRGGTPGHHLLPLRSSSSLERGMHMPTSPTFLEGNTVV
Test: GTP-γS binding assay ([35S]GTPγS, S1P at EC80, S1PR2 membranes)
Conditions: membranes from stable cell line over expressing S1PR2, read-out: S1PR2 EC
pEC50: −log10 of the molar value.
Quantity Name: pEC50

// below: answered compounds
INSERT INTO results (compound, test_target, quantity_name, endpoint_result) VALUES
  ('Cc1cc(CNC(=O)Nc2cc(OCC(F)F)nc(N3CC(F)(F)C3)c2)nnc1-c1cn(C)nc1C(F)(F)F', 'S1PR2 (Homo sapiens, UniProt O95136)', 'pEC50', 6.81),
  ('CCOc1nc(Cl)cc(NC(=O)NCc2cc(C)c(-c3cn(C)nc3C(F)(F)F)nn2)n1', 'S1PR2 (Homo sapiens, UniProt O95136)', 'pEC50', 6.96),
  ('Cc1cc(NC(=O)NCc2cc(C)c(-c3cn(C)nc3C(F)(F)F)nn2)cc(OCC(F)F)n1', 'S1PR2 (Homo sapiens, UniProt O95136)', 'pEC50', 6.55),
  ('CCOc1nc(C)cc(NC(=O)NCc2cc(C)c(-c3cn(C)nc3C(F)(F)F)nn2)c1Cl', 'S1PR2 (Homo sapiens, UniProt O95136)', 'pEC50', 7.60),
  ('CCOc1cc(NC(=O)NCc2cc(C)c(-c3cn(C)nc3C(F)(F)F)nn2)cnc1Cl', 'S1PR2 (Homo sapiens, UniProt O95136)', 'pEC50', 7.27),
  ('Cc1cc(CNC(=O)Nc2cc(OCCO)nc(C(F)(F)F)c2)nnc1-c1cn(C)nc1C(F)(F)F', 'S1PR2 (Homo sapiens, UniProt O95136)', 'pEC50', 6.06),
  ('Cc1cc(CNC(=O)Nc2cc(OCC(F)F)nc(C(F)(F)F)c2)nnc1-c1cn(C)nc1C(F)(F)F', 'S1PR2 (Homo sapiens, UniProt O95136)', 'pEC50', 7.05),
  ('CCOc1cc(NC(=O)NCc2cc(C)c(N3CC(C)OC(C)C3)nn2)cc(C(F)(F)F)n1 (stereo not shown)', 'S1PR2 (Homo sapiens, UniProt O95136)', 'pEC50', 6.48),
  ('Cc1cc(CNC(=O)Nc2cc(OCC3(C(F)(F)F)CC3)nc(C(F)(F)F)c2)nnc1-c1cn(C)nc1C(F)(F)F', 'S1PR2 (Homo sapiens, UniProt O95136)', 'pEC50', 5.98),
  ('CCOc1cc(NC(=O)NCc2cc(C)c(-c3cn(C4CCOC4)nc3C(F)(F)F)nn2)cc(C(F)(F)F)n1 (stereo not shown)', 'S1PR2 (Homo sapiens, UniProt O95136)', 'pEC50', 7.15);

P = CCOc1nc(C)cc(N/C(=N/C#N)NCc2cc(C)c(-c3cn(C)nc3C(F)(F)F)nn2)c1C
Q = Cc1cc(CNC(=O)Nc2cc(OCC(O)CO)nc(C(F)(F)F)c2)nnc1-c1cn(C)nc1C(F)(F)F (stereo not shown)
Task item: Could you kindly indicate whether P or Q has the higher pEC50 value? To answer, give the label that identifies your chosen option.
Reply: P
(P: 6.06, Q: 4.95)

A = CCOc1cc(NC(=O)NCc2cc(C)c(-c3cn(C)nc3C(F)(F)F)nn2)cc(Cl)n1
B = CCOc1cc(NC(=O)NCc2cc(C)c(-c3cn(C)nc3C)nn2)cc(Cl)n1
C = CCOc1ncc(NC(=O)NCc2cc(C)c(-c3cn(C)nc3C(F)(F)F)nn2)cc1Cl
Task item: Sort these compounds on pEC50 so the largest reading comes first. Show the ranking through the labels, in the order asked for.
Reply: A, B, C
(A: 7.65, B: 6.96, C: 6.51)
